# Tested on: SR leukemia
# Measurement protocol: NCI-60 one-dose screen, 48 h (100 = growth as untreated, 0 = no growth, -100 = all killed)
# Settings: 10 µM unless noted
Compounds without any hit were thinned out: in the full panel of roughly 83,000, 20% have a hit.
Parameter: growth (%)
Numbers only, in %.

// below: answered compounds
CC(=O)OCc1cc[c]([Hg][Cl])o1	-20.3
COc1ccc(/C=C\c2cc(OC)c(OC)c(OC)c2)cc1OCC(=O)Nc1nc2ccc(C(F)(F)F)cc2s1	26.5
CC[C@H](C)[C@H](NC(=O)[C@H]1CCCCN1C)C(=O)N(C)[C@H](C[C@@H](OC(C)=O)c1cccc(C(=O)N[C@@H](Cc2ccccc2)C[C@H](C)C(=O)O)n1)C(C)C	18

List growth for every entry below, keeping the order given.
1. CC1=C(O)[C@@](C)(CCCCC[C@H](C)CCCCc2ccc(O)cc2)OOC1=O
2. Cn1cc(-c2csc(-c3cn(CCCCN4CCCCC4)c4ccc(F)cc34)n2)c2cccnc21
3. Nc1ccc(Cl)cc1

OUTPUT:
[50.1, -44.9, 102]

List growth for every entry below, keeping the order given.
1. COC(=O)[C@@]1(C)CC[C@]2(C)CC[C@]3(C)C4=CC=C5C(=CC(=O)C(O)=C5C)[C@]4(C)CC[C@@]3(C)[C@@H]2C1
2. CC(=O)O[C@H](C[C@H](C(C)C)N(C)C(=O)[C@@H](NC(=O)[C@H]1CCCCN1C)C(C)C)c1nc(C(=O)N[C@@H](Cc2ccccc2)C[C@H](C)C(=O)O)c(C(C)C)s1
3. COc1cc2ncnc(Nc3ccc(F)c(Cl)c3)c2cc1OCC(=O)N1CCN(C)CC1
4. CC[C@H](C)[C@H](NC(=O)NC(C)(C)C)C(=O)N(C)[C@H](C[C@@H](OC(C)=O)c1nc(C(=O)N[C@@H](Cc2ccccc2)C[C@H](C)C(=O)OC)cs1)C(C)C
5. CCOc1ccc(/C=C/[N+](=O)[O-])cc1
6. NC(=O)C(Br)c1ccccc1 (stereo not drawn)
7. ClCCN(CCCl)c1ccc(OCc2ccccc2)cc1

OUTPUT:
[-46.7, 7.04, 74.5, 10.6, 67.5, 46.1, -8.12]

List growth for every entry below, keeping the order given.
1. CN(CCCCN(C)CCOS(C)(=O)=O)CCOS(C)(=O)=O
2. COC[C@@H]1C[C@@]2(C)[C@@H](CC[C@@H]3[C@@H]2CC[C@@]2(C)[C@H]3CC[C@]2(C)O)CC1=O
3. CC(=O)O[C@@H]1CC[C@]2(C)[C@H]3CC[C@]4(C)C(=O)CC[C@H]4[C@@H]3C[C@@H]3SC(N)=N[C@@]32C1
4. COc1ccc(/C=C\c2cc(OC)c(OC)c(OC)c2)c(NS(=O)(=O)c2ccc(Cl)cc2)c1O

OUTPUT:
12.1
83.7
31.7
7.33

INPUT: Report growth for ClCCN(CCCl)c1nc(Cl)c(C2CC(c3ccccc3)=NN2c2cc(Cl)cc(Cl)c2)s1 (stereo not drawn) please.
OUTPUT: 112
